Measured DC50, listed per entry.
Biological target: BTK (Homo sapiens, UniProt Q06187)
Sequence (Q06187 whole entry): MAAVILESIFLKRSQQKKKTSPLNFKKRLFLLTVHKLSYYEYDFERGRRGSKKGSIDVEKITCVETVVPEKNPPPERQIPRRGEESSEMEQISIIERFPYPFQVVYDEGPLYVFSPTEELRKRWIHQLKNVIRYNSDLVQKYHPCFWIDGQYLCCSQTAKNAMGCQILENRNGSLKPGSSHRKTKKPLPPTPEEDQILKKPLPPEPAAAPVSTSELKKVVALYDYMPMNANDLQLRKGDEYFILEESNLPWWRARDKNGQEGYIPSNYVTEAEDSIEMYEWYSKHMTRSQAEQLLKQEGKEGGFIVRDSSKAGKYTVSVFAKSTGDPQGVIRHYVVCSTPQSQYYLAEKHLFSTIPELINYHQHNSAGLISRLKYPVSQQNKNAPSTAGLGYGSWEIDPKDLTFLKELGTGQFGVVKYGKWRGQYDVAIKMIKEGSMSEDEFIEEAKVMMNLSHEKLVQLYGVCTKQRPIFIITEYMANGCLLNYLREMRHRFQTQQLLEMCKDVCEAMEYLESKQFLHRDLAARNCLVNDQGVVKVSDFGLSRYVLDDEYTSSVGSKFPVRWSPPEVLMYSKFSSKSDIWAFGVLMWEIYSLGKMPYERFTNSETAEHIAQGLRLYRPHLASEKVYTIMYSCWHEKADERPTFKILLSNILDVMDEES
Test: BTK cell degradation in TMD-8 cells, HTRF assay
Format: cell-based
Set-up: endogenous in cells; host or cells: TMD-8 cells
Conditions: 6 h treatment, IC50 (DC50) of BTK degradation

NC(=O)c1c(-c2ccc(Oc3ccccc3)cc2)nn2c1Nc1ccc(C(=O)NC3CCN(c4ccc5c(c4)C(=O)N(C4CCC(=O)NC4=O)C5=O)CC3)cc1CC2 (stereo not drawn)	2.26 nM

stdin: For the compound NC(=O)c1c(-c2ccc(Oc3ccccc3)cc2)nn2c1Nc1cc(C3CCN(CCc4ccc(N5CCC(=O)NC5=O)cc4)CC3)ccc1CC2 , what DC50 is on record?
stdout: > 2000 nM

stdin: For the compound Cc1cccc(NC(=O)c2ccc(-c3nn4c(c3C(N)=O)Nc3ccc(N5CCN(CC6CCN(c7ccc(N8CCC(=O)NC8=O)cc7)CC6)CC5)cc3CC4)cc2Cl)n1 , what DC50 is on record?
stdout: 0.415 nM
